- System: wheat
- Assay Comment: Test A pre-/postemergence greenhouse test
- Format: in vivo, Triticum aestivum
- Details: Postemergence, 500 g ai/ha; 0 to 100 scale, 0 is no effect, 100 is complete control
Assay Endpoint: Wheat plant response rating

1) CCOc1ccc(S(=O)(=O)Cc2c(C(F)(F)F)nn(C)c2OC(F)F)[n+]([O-])c1	0
2) CC(Oc1c(C[S+]([O-])c2cccc[n+]2[O-])c(C(F)(F)F)nn1C)C(F)(F)F (stereo not shown)	70
3) CC(c1c(C(F)(F)F)nn(CC(F)(F)F)c1Cl)[S+]([O-])c1cccc[n+]1[O-] (stereo not shown)	50
4) Cc1cc(S(=O)(=O)Cc2c(C(F)(F)F)nn(C)c2OCC(F)(F)F)[n+]([O-])cc1Cl	50
